Molecular target: human receptor tyrosine kinase like orphan receptor 1 (ROR1) (human, UniProt Q01973 30-937)
Sequence (Q01973 30-937): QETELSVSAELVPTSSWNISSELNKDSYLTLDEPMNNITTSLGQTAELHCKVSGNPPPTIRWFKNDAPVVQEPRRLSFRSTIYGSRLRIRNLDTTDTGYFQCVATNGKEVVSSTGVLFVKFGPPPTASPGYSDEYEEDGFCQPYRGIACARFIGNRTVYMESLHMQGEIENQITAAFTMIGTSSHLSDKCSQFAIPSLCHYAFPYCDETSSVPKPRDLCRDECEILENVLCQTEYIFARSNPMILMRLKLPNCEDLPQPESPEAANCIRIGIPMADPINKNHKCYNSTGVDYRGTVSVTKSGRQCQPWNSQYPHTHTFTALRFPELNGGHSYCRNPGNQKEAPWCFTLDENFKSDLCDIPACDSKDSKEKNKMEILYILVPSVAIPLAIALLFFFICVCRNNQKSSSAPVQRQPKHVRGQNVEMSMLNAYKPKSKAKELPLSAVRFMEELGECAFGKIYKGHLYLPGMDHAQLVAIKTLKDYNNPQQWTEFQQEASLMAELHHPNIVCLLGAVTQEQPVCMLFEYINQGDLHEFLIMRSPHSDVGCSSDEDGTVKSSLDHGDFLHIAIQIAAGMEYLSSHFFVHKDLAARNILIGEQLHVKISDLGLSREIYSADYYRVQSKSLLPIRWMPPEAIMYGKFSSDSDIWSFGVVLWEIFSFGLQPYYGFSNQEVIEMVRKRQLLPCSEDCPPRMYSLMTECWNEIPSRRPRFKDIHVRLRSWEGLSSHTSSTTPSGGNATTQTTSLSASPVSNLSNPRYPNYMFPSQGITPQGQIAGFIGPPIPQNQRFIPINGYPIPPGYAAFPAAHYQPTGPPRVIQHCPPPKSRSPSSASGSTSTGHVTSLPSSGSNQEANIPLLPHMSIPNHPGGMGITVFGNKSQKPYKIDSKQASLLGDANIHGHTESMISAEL
Test: cell-based or functional assay
OBSERVED PROPERTY: IC50, cell viability (CellTiter-Glo, 72 h), TOV112D cells

I am curious: what IC50, cell viability (CellTiter-Glo, 72 h), TOV112D cells value has been reported for ADC-C (antibody, human IgG1, kappa, V domains shown, MAL-VC-PAB-DM1 bonded via cysteine residues of the antibody (chain and positions not stated)) VH: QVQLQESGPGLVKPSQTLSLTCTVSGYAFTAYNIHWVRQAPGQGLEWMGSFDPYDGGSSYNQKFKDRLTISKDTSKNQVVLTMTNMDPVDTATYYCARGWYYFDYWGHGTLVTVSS VL: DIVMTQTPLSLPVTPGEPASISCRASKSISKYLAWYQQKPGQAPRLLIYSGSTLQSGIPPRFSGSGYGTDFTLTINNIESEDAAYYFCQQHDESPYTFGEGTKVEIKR ? > 1000 nM
